Reference source for all entries: patent US20160083391A1

This listing pairs molecules with measured pIC50.
system: PDE1; assay: In vitro HTRF PDE1 inhibition assay; format: biochemical; details: HTRF cGMP assay, 100 nM cyclic GMP, PDE (1A3, 1B or 1C) with calmodulin, 45 minutes at 37° C.; isoform of the tabulated values not stated
pIC50: −log10 of the molar value.
MEASURED_PROPERTY: pIC50

item_smiles=CC(C)n1ncc2c(=O)n3c(nc21)CN(Cc1cncnc1)CC3 measured_property=pIC50 result="< 5.00"
item_smiles=O=c1c2cnn(C3CCCC3)c2nc2n1CCN(CCc1ccc(Cl)cc1)C2 measured_property=pIC50 result="5.00 to 6.00"
item_smiles=COCCn1ncc2c(=O)n3c(nc21)CN(Cc1ccc(OC)cc1)CC3 measured_property=pIC50 result="5.00 to 6.00"
item_smiles=CC(C)c1nnc2c(=O)n3c(nn12)CN(Cc1ccccc1)CC3 measured_property=pIC50 result="5.00 to 6.00"
item_smiles=O=c1n2c(nc3c(C4CCCC4)ncn13)CN(Cc1ccc(Cl)cc1)CC2 measured_property=pIC50 result="> 6.00"

---

tested on: PDE1; assay: In vitro HTRF PDE1 inhibition assay; format: biochemical; details: HTRF cGMP assay, 100 nM cyclic GMP, PDE (1A3, 1B or 1C) with calmodulin, 45 minutes at 37° C.; isoform of the tabulated values not stated
pIC50: −log10 of the molar value.
This listing pairs compounds with measured pIC50.
MEASURED_PROPERTY: pIC50

compound="O=c1c2cnn(-c3ccccc3)c2nc2n1CCNC2 [Compound I-2]" target_under_test=PDE1 measured_property=pIC50 result="< 5.00"
compound="CC(C)n1ncc2c(=O)n3c(nc21)CN(Cc1ccc(Cl)cc1)CC3 [Compound I-73]" target_under_test=PDE1 measured_property=pIC50 result="> 6.00"
compound="CC1NCCn2c1nc1c(cnn1C)c2=O (racemic) [Compound I-3]" target_under_test=PDE1 measured_property=pIC50 result="< 5.00"
compound="CC(C)c1n[nH]c2c(=O)n3c(nc12)C(C)N(Cc1ccccc1)CC3 (racemic) [Compound I-44]" target_under_test=PDE1 measured_property=pIC50 result="< 5.00"
compound="O=c1c2nnn(C3CCCC3)c2nc2n1CCN(Cc1ccc(Cl)cc1)C2 [Compound I-128]" target_under_test=PDE1 measured_property=pIC50 result="< 5.00"
compound="CC(C)Cn1ncc2c(=O)n3c(nc21)CN(Cc1cccc(Cl)c1)CC3 [Compound I-71]" target_under_test=PDE1 measured_property=pIC50 result="> 6.00"
compound="CC(C)Cc1nnc2c(=O)n3c(nn12)CN(Cc1ccc(Cl)cc1)CC3 [Compound I-215]" target_under_test=PDE1 measured_property=pIC50 result="> 6.00"
compound="COc1ccccc1CN1CCn2c(nc3c(cnn3CC(C)C)c2=O)C1 [Compound I-77]" target_under_test=PDE1 measured_property=pIC50 result="5.00 to 6.00"
compound="CC(C)c1nn(C)c2c(=O)n3c(nc12)C(Cc1ccccc1)N(C)CC3 (racemic) [Compound I-42]" target_under_test=PDE1 measured_property=pIC50 result="< 5.00"
compound="COc1ccccc1CN1CCn2c(nc3c(cnn3C(C)C)c2=O)C1 [Compound I-76]" target_under_test=PDE1 measured_property=pIC50 result="5.00 to 6.00"
compound="O=c1c2cnn(C3CCOC3)c2nc2n1CCN(c1ccc(Cl)cc1)C2 (racemic) [Compound I-217]" target_under_test=PDE1 measured_property=pIC50 result="> 6.00"
compound="O=c1c2cnc(C3CCCC3)n2nc2n1CCN(Cc1ccc(Cl)cc1)C2 [Compound I-134]" target_under_test=PDE1 measured_property=pIC50 result="> 6.00"
compound="CCCn1ncc2c(=O)n3c(nc21)CN(Cc1ccccc1)CC3 [Compound I-54]" target_under_test=PDE1 measured_property=pIC50 result="5.00 to 6.00"
compound="COc1ccc(CN2CCn3c(nc4c(cnn4C4CCCC4)c3=O)C2C)cc1 (racemic) [Compound I-118]" target_under_test=PDE1 measured_property=pIC50 result="5.00 to 6.00"
compound="COc1ccc(CN2CCn3c(nc4c(cnn4C(C)C)c3=O)C2)cc1F [Compound I-140]" target_under_test=PDE1 measured_property=pIC50 result="> 6.00"
compound="O=c1c2cnn(C3CCOC3)c2nc2n1CCN(c1ccccc1)C2 (racemic) [Compound I-216]" target_under_test=PDE1 measured_property=pIC50 result="5.00 to 6.00"
compound="Cc1cnc(CN2CCn3c(nc4c(cnn4C4CCCC4)c3=O)C2)cn1 [Compound I-207]" target_under_test=PDE1 measured_property=pIC50 result="5.00 to 6.00"
compound="CC(C)n1ncc2c(=O)n3c(nc21)CN(c1ccc(F)cc1)CC3 [Compound I-142]" target_under_test=PDE1 measured_property=pIC50 result="> 6.00"
compound="CC(C)Cn1ncc2c(=O)n3c(nc21)CN(Cc1ccccc1)CC3 [Compound I-51]" target_under_test=PDE1 measured_property=pIC50 result="5.00 to 6.00"
compound="CC(C)n1ncc2c(=O)n3c(nc21)CN(Cc1cnccn1)CC3 [Compound I-202]" target_under_test=PDE1 measured_property=pIC50 result="5.00 to 6.00"
compound="COc1cccc(N2CCn3c(nc4c(cnn4C(C)C)c3=O)C2)c1 [Compound I-97]" target_under_test=PDE1 measured_property=pIC50 result="> 6.00"
compound="CC(C)c1nn(C)c2c(=O)n3c(nc12)C(C)N(C)CC3 (racemic) [Compound I-41]" target_under_test=PDE1 measured_property=pIC50 result="< 5.00"
compound="O=c1c2cnc(C3CCCC3)n2nc2n1CCN(c1ccc(Cl)cc1)C2 [Compound I-182]" target_under_test=PDE1 measured_property=pIC50 result="> 6.00"
compound="O=c1c2cnn(C3CCCC3)c2nc2n1CCN(c1ccccc1)C2 [Compound I-95]" target_under_test=PDE1 measured_property=pIC50 result="> 6.00"
compound="COc1ccc(CN2CCn3c(nn4c(C5CCCC5)nnc4c3=O)C2)cc1 [Compound I-131]" target_under_test=PDE1 measured_property=pIC50 result="> 6.00"
compound="CC1Cn2c(nc3c(cnn3C3CCCC3)c2=O)CN1Cc1ccc(Cl)cc1 (racemic) [Compound I-119]" target_under_test=PDE1 measured_property=pIC50 result="> 6.00"
compound="CC(C)n1ncc2c(=O)n3c(nc21)CN(C)C(Cc1ccccc1)C3 (racemic) [Compound I-110]" target_under_test=PDE1 measured_property=pIC50 result="< 5.00"
compound="COc1cccc(N2CCn3c(nc4c(cnn4C4CCCC4)c3=O)C2)c1 [Compound I-98]" target_under_test=PDE1 measured_property=pIC50 result="> 6.00"
compound="O=c1c2cnn(-c3ccccc3)c2nc2n1CCN(Cc1ccccc1)C2Cc1ccccc1 (racemic) [Compound I-37]" target_under_test=PDE1 measured_property=pIC50 result="< 5.00"
compound="CCCn1ncc2c(=O)n3c(nc21)CN(Cc1ccc(Cl)c(Cl)c1)CC3 [Compound I-165]" target_under_test=PDE1 measured_property=pIC50 result="5.00 to 6.00"
compound="CC(C)n1ncc2c(=O)n3c(nc21)CN(c1ccc(Cl)c(Cl)c1)CC3 [Compound I-171]" target_under_test=PDE1 measured_property=pIC50 result="> 6.00"
compound="O=c1c2[nH]nc(C3CCCC3)c2nc2n1CCN(Cc1ccc(Cl)cc1)C2 [Compound I-124]" target_under_test=PDE1 measured_property=pIC50 result="5.00 to 6.00"
compound="COc1ccccc1N1CCn2c(nc3c(cnn3C(C)C)c2=O)C1 [Compound I-94]" target_under_test=PDE1 measured_property=pIC50 result="5.00 to 6.00"
compound="CC1c2nc3c(cnn3-c3ccccc3)c(=O)n2CCN1C (racemic) [Compound I-22]" target_under_test=PDE1 measured_property=pIC50 result="< 5.00"
compound="CC(C)c1nn(C)c2c(=O)n3c(nc12)CN(C)CC3 [Compound I-40]" target_under_test=PDE1 measured_property=pIC50 result="< 5.00"

---

test system: PDE1; test: In vitro HTRF PDE1 inhibition assay; type: biochemical; settings: HTRF cGMP assay, 100 nM cyclic GMP, PDE (1A3, 1B or 1C) with calmodulin, 45 minutes at 37° C.; isoform of the tabulated values not stated
pIC50: −log10 of the molar value.
MEASURED_PROPERTY: pIC50

item_smiles=O=c1c2cnn(C3CCCC3)c2nc2n1CCN(Cc1ccccc1)C2 measured_property=pIC50 result="5.00 to 6.00"
item_smiles=O=c1c2cnn(C3CCCC3)c2nc2n1CCN(c1cccc(Cl)c1)C2 measured_property=pIC50 result="5.00 to 6.00"
item_smiles=O=c1c2cnc(C3CCOCC3)n2nc2n1CCN(c1ccc(Cl)cc1)C2 measured_property=pIC50 result="> 6.00"
item_smiles=O=C(c1ccc(Cl)cc1)N1CCn2c(nc3c(cnn3C3CCCC3)c2=O)C1 measured_property=pIC50 result="5.00 to 6.00"
item_smiles=CC(C)n1ncc2c(=O)n3c(nc21)CN(c1ccc(C(F)(F)F)cc1)CC3 measured_property=pIC50 result="> 6.00"
item_smiles=CCCn1ncc2c(=O)n3c(nc21)CN(Cc1ccc(Cl)cc1)CC3 measured_property=pIC50 result="5.00 to 6.00"
item_smiles=CCCn1ncc2c(=O)n3c(nc21)CN(Cc1cccc(OC)c1)CC3 measured_property=pIC50 result="5.00 to 6.00"
item_smiles=O=c1c2cnn(C3CCCC3)c2nc2n1CCN(Cc1cccc(Cl)c1)C2 measured_property=pIC50 result="> 6.00"
item_smiles=COCCn1ncc2c(=O)n3c(nc21)CN(c1ccc(Cl)cc1)CC3 measured_property=pIC50 result="5.00 to 6.00"
